Source of measurements: PubChem BioAssay (NCI)

Provide the reported GI50 of each item.
System: HCT-15 colon
Assay: NCI tumour cell line growth inhibition, 48 h

Entry under test: `O=C(N/N=C/c1cc([N+](=O)[O-])ccc1O)c1cccc2ccccc12` . Its GI50 was 2550 nM

Entry under test: `COc1ccc(-c2nn(-c3cccc(Cl)c3)cc2-c2cc(-c3ccccc3)nc(N)n2)cc1` . Its GI50 was 3600 nM

Entry under test: `Cc1[nH]c2ccccc2c1CCNCc1ccc(/C=C/C(=O)NO)cc1` . Its GI50 was 67.6 nM

Entry under test: CCN1C(=O)N(CC)C2C1NN=c1s/c(=C\c3cc4ccccc4[nH]3)c(=O)n12 (centres undefined) . Its GI50 was 32.4 nM

Entry under test: `CCN(CC)c1ccc(C(=N)c2ccc(N(C)C)cc2)cc1` . Its GI50 was 170 nM

Entry under test: C=C1CCC2C3(C)COC(c4ccccc4Br)OC3CCC2(C)C1C/C=C1/C(=O)OCC1OC(C)=O (centres undefined) . Its GI50 was 730 nM

Entry under test: `CC(C)C[C@H](NC(=O)[C@@H](O)[C@H](N)Cc1ccc([N+](=O)[O-])cc1)C(=O)O` . Its GI50 was > 25000 nM

Entry under test: COC(=O)C1=C(OC(=O)c2ccc(Cl)cc2)C(C(=O)OC)[C@@]2(O)[C@@H](C(=O)OC)C(c3ccccc3Cl)C[C@@H]1[C@@H]2C(=O)OC (some centres undefined) . Its GI50 was 3040 nM

Entry under test: COc1ccc2c(c1)C(C)Cc1c(Cl)nc(C)nc1N2C (centres undefined) . Its GI50 was 1330 nM

###

System: RXF 393 renal
Experiment: NCI tumour cell line growth inhibition, 48 h
METRIC NAME: TGI

Entry under test: `FC(F)(F)c1ccc(-c2cnc(Cl)nc2NCc2cc(C(F)(F)F)cc(C(F)(F)F)c2)cc1` . Its TGI was > 100 µM

Entry under test: N#Cc1cc([N+](=O)[O-])ccc1NC(=O)/C(=N/N)C(C(=O)c1ccc(Cl)c(Cl)c1)C1OC(=O)c2ccccc21 (stereo not given) . Its TGI was > 100 µM

Entry under test: `CCOc1cc2c(cc1O)/C(=N/NS(=O)(=O)c1ccc(C)cc1)C[C@@H]1[C@@H]2CC[C@]2(C)[C@@H](O)CC[C@@H]12` . Its TGI was > 100 µM

Entry under test: O=C1NC(=O)C(COCc2ccccc2)C2=C1SCCC2 (stereo not given) . Its TGI was > 100 µM

Entry under test: `CC(C)c1ccc(Nc2nccc(-c3cnn4ncccc34)n2)cc1` . Its TGI was 0.827 µM

Entry under test: `COc1cc(C)c(O)c(C(=O)O)c1` . Its TGI was > 100 µM

Entry under test: `COc1cc(/C=C/C(=O)c2sc(NNC(C)=O)nc2C)ccc1O` . Its TGI was > 100 µM

Entry under test: `CCOC(=O)/C=C(\C(=O)OCC)n1ccc(=O)n(CC(=O)OCC)c1=O` . Its TGI was 2.97 µM

Entry under test: `Cn1cc(-c2ccc(-c3cn(C)c4ccc(Cl)cc34)s2)c2cc(Cl)ccc21` . Its TGI was > 100 µM

Entry under test: `CC(C)/C(Cl)=N\OC(=O)Nc1ccc(F)cc1F` . Its TGI was 12.6 µM

###

System: 786-0 renal
Assay: NCI tumour cell line growth inhibition, 48 h
Outcome label depends on TGI relative to 30 µM: at/above gives T, below gives F.

Data request: Hello, I need to know if `COc1ccc(-c2nn(-c3cccc(Cl)c3)cc2-c2cc(-c3ccccc3)nc(N)n2)cc1` has measured TGI not below 30 µM. Thanks!
Data returned: F

Data request: Hello, I need to know if `O=C(OCCBr)c1ccc(Cl)c([N+](=O)[O-])c1` has measured TGI not below 30 µM. Thanks!
Data returned: T

Data request: Hello, I need to know if `COC(=O)CC(=O)Nc1sccc1S(=O)(=O)c1ccccc1` has measured TGI not below 30 µM. Thanks!
Data returned: T

Data request: Hello, I need to know if COc1cc(C2C3=C(COC3=O)Nc3cc4c(cc32)CCC4)cc2c1OCO2 (stereo not given) has measured TGI not below 30 µM. Thanks!
Data returned: F

Data request: Hello, I need to know if `Cc1[nH]c2ccccc2c1CCNCc1ccc(/C=C/C(=O)NO)cc1` has measured TGI not below 30 µM. Thanks!
Data returned: F

Data request: Hello, I need to know if `C=C1C(=O)O[C@H]2[C@H]3O[C@@H](C[C@@H]12)[C@@]1(C)CC[C@H](O1)C(C)=CCC[C@H]3C` has measured TGI not below 30 µM. Thanks!
Data returned: F

Data request: Hello, I need to know if `CCCOc1nc(SCCC)nc2c1cnn2-c1ccccc1` has measured TGI not below 30 µM. Thanks!
Data returned: T

Data request: Hello, I need to know if CC1=N[C@](C)(C2CC3C=CC2C3=O)COC1=O (stereo not given in full) has measured TGI not below 30 µM. Thanks!
Data returned: T

Data request: Hello, I need to know if `C/C=C/[C@@H]1OC(=O)C2=C[C@@H](O)[C@@H](/C=C/C)O[C@H]21` has measured TGI not below 30 µM. Thanks!
Data returned: F

###

Provide the reported TGI of each item.
Tested on: MCF7 breast
Test: NCI tumour cell line growth inhibition, 48 h
Give a bare numeral; the unit µM is implied.

Entry under test: `CSC1(SC2=NCCN2)SC2(NCCN2)S1` . Its TGI was 12.8

Entry under test: `O=C1/C(=C/c2ccccc2)CCC/C1=C\c1ccc(O)c(CN2CCCCC2)c1` . Its TGI was 19.2

Entry under test: `Cc1cc2nc(-c3c(F)cccc3F)n(Cc3c(F)cccc3F)c2cc1C` . Its TGI was 57.1

###

Provide the reported TGI of each item.
Tested on: DMS 114 small cell lung
Experiment: NCI tumour cell line growth inhibition, 48 h

Entry under test: `CCOC(=O)C1=C(Nc2cccc3ccccc23)OC/C1=N\NC(=O)c1ccccc1O` . Its TGI was 31.6 µM

Entry under test: `COc1ccc(-c2cc(=O)c3cc4c(cc3[nH]2)OCO4)cc1` . Its TGI was > 100 µM

Entry under test: `CCSc1nc(=[N+]2CCCC2)ss1` . Its TGI was 55.5 µM

Entry under test: N#Cc1cc([N+](=O)[O-])ccc1NC(=O)/C(=N/N)C(C(=O)c1ccc(Cl)c(Cl)c1)C1OC(=O)c2ccccc21 (stereo not given) . Its TGI was > 100 µM

Entry under test: C[C@@H](NC1CCC[C@H]1O)c1ccccc1 (stereo not given in full) . Its TGI was > 100 µM

Entry under test: CC1CCC(C(C)C)C(O[C@@H]2OC(=O)C[C@@H]2Sc2ccccc2)C1 (stereo not given in full) . Its TGI was 46.9 µM

Entry under test: CC#CC1C(OC(=O)c2ccccc2)CCCC1(CI)N=[N+]=[N-] (stereo not given) . Its TGI was 99.2 µM

Entry under test: `COc1cc(/C=C/C(=O)c2sc(NNC(C)=O)nc2C)ccc1O` . Its TGI was > 100 µM

Entry under test: `CC(=O)Nc1ccc(/C=C/C(=O)c2sc(-c3nc(C)c(C(=O)/C=C/c4ccc(NC(C)=O)cc4)s3)nc2C)cc1` . Its TGI was > 100 µM

Entry under test: `C1CCOC2(CCC3(CC2)OCCCCO3)OC1` . Its TGI was > 100 µM

###

Test system: RXF-631 renal
Assay: NCI tumour cell line growth inhibition, 48 h
Provide the reported TGI of each item.

Let me check: C=CC1C(OC2OC(CO)C(O)C(O)C2O)OC=C(C(=O)OC)C1CC=O (stereo not given) , system RXF-631 renal, measured TGI is > 100 µM

Let me check: CC(C)C12C=CC(C)(CC1)n1c(=O)c3cc4ccccc4cc3c(=O)n12 (stereo not given) , system RXF-631 renal, measured TGI is > 100 µM

Let me check: `O=C(CCc1cc(-c2ccccc2)nc(=S)[nH]1)Nc1ccccc1[N+](=O)[O-]` , system RXF-631 renal, measured TGI is > 100 µM

Let me check: `CS/C(C)=N/OC(=O)NCCCCNc1ccc(N=[N+]=[N-])cc1` , system RXF-631 renal, measured TGI is 31.4 µM

Let me check: O=C1c2ccccc2CC1C1(O)C(=O)Nc2ccccc21 (stereo not given) , system RXF-631 renal, measured TGI is > 100 µM

###

System: OVCAR-5 ovarian
Assay: NCI tumour cell line growth inhibition, 48 h
METRIC NAME: TGI

Entry under test: `CC(=O)O[C@H]1CCn2c3c(c(C)c21)C(=O)C(N1CC1)=C(C)C3=O` . Its TGI was > 10 µM

Entry under test: `Cc1ccc2c(c1)-c1c(C#N)c(N)nc(-c3ccccc3)c1CCS2(=O)=O` . Its TGI was > 100 µM

Entry under test: `Nc1n[nH]c2cccc(C#Cc3cccc(C(=O)Nc4cc(CN5CCOCC5)cc(C(F)(F)F)c4)c3)c12` . Its TGI was 25.7 µM

Entry under test: `CCN(CC)C(=S)N=Nc1c(O)[nH]c2ccccc12` . Its TGI was 25.1 µM

Entry under test: CC#CC1C(OC(=O)c2ccccc2)CCCC1(CI)N=[N+]=[N-] (stereo not given) . Its TGI was > 100 µM

Entry under test: `COc1ccc(C(=O)N(C(=S)OCCOc2ccccc2)c2ccccc2)cc1` . Its TGI was > 100 µM

Entry under test: `CCC(/C=C/c1ccccc1)=N\Nc1ccc(Cl)c(Cl)c1` . Its TGI was > 100 µM

Entry under test: CCOc1cc2c(cc1OC(C)=O)C(=O)CC[C@H]1C3CC[C@H](OC(C)=O)[C@@]3(C)CC[C@H]21 (stereo not given in full) . Its TGI was > 100 µM

Entry under test: `O=c1oc(-c2ccccc2)c(-c2ccccc2)n1-c1ccc(Br)cc1` . Its TGI was > 100 µM

Entry under test: O=C(NN1C(=O)CSC1c1ccc(C(F)(F)F)cc1)c1ccncc1 (stereo not given) . Its TGI was > 100 µM

Entry under test: `COC(=O)CC(=O)Nc1sccc1S(=O)(=O)c1ccccc1` . Its TGI was > 100 µM

Entry under test: `CCOC(=O)/C=C(\C(=O)OCC)n1ccc(=O)n(CC(=O)OCC)c1=O` . Its TGI was 10.1 µM

Entry under test: `O=C(Cc1ccccc1)NCCCN(CCCCN(CCCNC(=O)Cc1ccccc1)C(=O)OCc1ccccc1)C(=O)OCc1ccccc1` . Its TGI was > 100 µM

Entry under test: `Cc1ccc2c(c1)C(=O)c1c-2n(CCCBr)c(=O)c2cc([N+](=O)[O-])ccc12` . Its TGI was > 100 µM

Entry under test: `CC1(C)CC[C@]2(C(=O)N3CCOCC3)CC[C@]3(C)C(=CC[C@@H]4[C@@]5(C)C/C(=C/c6ccncc6)C(=O)C(C)(C)[C@@H]5CC[C@]43C)[C@@H]2C1` . Its TGI was 9.45 µM

Entry under test: CN(C)CC1CCCCCC(CN(C)C)C1=O (stereo not given) . Its TGI was 22 µM

Entry under test: c1ccc2c(c1)nc1n2C2CCC(C2)N1 (stereo not given) . Its TGI was > 10 µM

Entry under test: `CCc1nnc(-c2nsc3ccccc23)s1` . Its TGI was > 100 µM

Entry under test: O=C1NC2C=CN(Cc3ccccc3)C=C2C(=O)N2CCCC12 (stereo not given) . Its TGI was > 100 µM

Entry under test: `COC(=O)C1=C(CCCCO[Si](C)(C)C(C)(C)C)NC(=O)N2[C@@H](CCOCc3ccccc3)CC[C@H]12` . Its TGI was > 100 µM
